These entries and their values trace back to paper PMC12102759.

B1: PRDM14 peptide 196-211 (PR domain zinc finger protein 14), 16-mer library wild type / NSP3 SUD-M (ORF1ab Nsp3c SUD-M, residues 1356-1493) (parent)
chain 1: QFTEEDLHFVLYGVTP
chain 2: LPSIISNEKQEILGTVSWNLREMLAHAEETRKLMPVCVETKAIVSTIQRKYKGIKIQEGVVDYGARFYFYTSKTTVASLINTLNDLNETLVTMPLGYVTHGLNLEEAARYMRSLKVPATVSVSSPDAVTAYNGYLTSS

- Variants of: B1
- experimentalSetup: with NSP3 SUD-M (ORF1ab Nsp3c SUD-M, residues 1356-1493); bait immobilised on MaxiSorp plates (10 µg), library pre-cleared on GST, 2 h binding at 4 °C, five washes; one round per day, days 1-4; value from days 2 and 3; keep out of graded; scale: average fractional NGS count over selection days 2 and 3
measuredEndpoint: screen value
Format: numeric value only, no unit, no commentary.

Below: 4 variants and their reported screen value.
• chain 1 P16W = 2.83e-05
• chain 1 E4T = 1.11e-05
• chain 1 L11T = 0
• chain 1 L7G = 0

input: Suppose we examine the variant chain 1 T3I ; what screen value value has been reported?
output: 0

input: Suppose we examine the variant chain 1 V10N ; what screen value value has been reported?
output: 0
